- runDescription: Pharmacokinetics of paeoniflorin in pseudo-germ-free (PGF) rats
- Assay type: in vivo
- measurementConditions: SD, rat, in vivo; PGF rats (antibiotic pretreated), oral paeoniflorin 20 mg/kg, plasma analyte = labelled substance
assayMetric: Tmax (min)
Record the value in min, omitting the unit from your answer.

Looking up O=C(O)c1ccccc1 , I found its Tmax recorded as 35.8

---

- runDescription: Pharmacokinetics of paeoniflorin in pseudo-germ-free (PGF) rats
- Assay type: in vivo
- measurementConditions: SD, rat; PGF rats (antibiotic pretreated), oral paeoniflorin 20 mg/kg, plasma analyte = labelled substance; read-out: t1/2z (converted)
assayMetric: half-life (h)
Just the number in h, nothing appended.

// sample C[C@@]12C[C@@]3(O)O[C@@H](O1)[C@]1(COC(=O)c4ccccc4)[C@H]3C[C@@]12O[C@@H]1O[C@H](CO)[C@@H](O)[C@H](O)[C@H]1O [Paeoniflorin] , its half-life was 2.58
